Where these numbers come from: PubChem BioAssay (EPA / NIEHS)

Assay: BSK_SAg_PBMCCytotoxicity: PBMC Cytotoxicity Assessment in the BioMAP Diversity Plus: SAg Assay (AID 2283093);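 also: PBMC viability measured as Alamar Blue reduction fluorescence at 546/580 nm; fitted both ways against DMSO so a hit may be loss or gain of signal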
Details: primary human HUVEC with PBMC
Calls of active or inactive are those of the source. The calls were made as follows: active = hit-call score of the fitted dose curve at least 0.9, where 1 is the maximum; inactive = score below 0.9.
Outcomes: TRUE for active, FALSE for inactive

{"columns": ["molecule", "label.class"],
 "data": [
  ["CC(C)(COCC1CO1)COCC1CO1 (configuration not stated)", "FALSE"],
  ["CCN(CC)C(=O)C(Cl)=C(C)OP(=O)(OC)OC", "FALSE"],
  ["O=[N+]([O-])c1ccc(Nc2ccccc2)cc1", "FALSE"],
  ["N#Cc1cccnc1", "FALSE"],
  ["NC(=O)CCl", "FALSE"],
  ["CCCCOC(=O)COC(=O)c1ccccc1C(=O)OCCCC", "FALSE"],
  ["Cc1cc(Cl)ccc1OC(C)C(=O)O (configuration not stated)", "FALSE"],
  ["CCOP(=S)(OCC)OP(=S)(OCC)OCC", "TRUE"],
  ["OCCN(CCO)CCO", "FALSE"],
  ["CCCCCCCCCCCCN(C)C", "FALSE"],
  ["Cc1cc(Cl)ccc1N", "FALSE"],
  ["Cc1c([N+](=O)[O-])c(C)c([N+](=O)[O-])c(C(C)(C)C)c1[N+](=O)[O-]", "FALSE"]
]}

* * *

Assay: BSK_KF3CT_SRB: Viability Assessment in the BioMAP Diversity Plus: KF3CT Assay (AID 2283069);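 also: total protein by sulforhodamine B staining as a cytotoxicity measure; read 24 h after compound addition; fitted for both signal gain and loss against DMSO baseline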
Conditions: primary human keratinocytes with fibroblasts
Method: BSK_KF3CT is a cell-based, multiplexed-readout assay that uses keratinocytes and foreskin fibroblasts, a human skin primary cell co-culture, with measurements taken at 24 hours after chemical dosing in a 96-well plate.BSK_KF3CT_SRB is an assay component measured in the BSK_KF3CT assay. It measures 0.1% sulforhodamine related to cell death using Sulforhodamine staining technology.Data from the assay component BSK_KF3CT_SRB was analyzed into 1 assay endpoint. […]
Activity calls are given as the source filed them. The calls were made as follows: active = hit-call score of the fitted dose curve at least 0.9, where 1 is the maximum; inactive = score below 0.9.
Outcomes: T = active, F = inactive

{"columns": ["molecule", "label.class"],
 "data": [
  ["O=[N+]([O-])c1ccc(Nc2ccccc2)cc1", "F"],
  ["Clc1cccc(Cl)c1", "F"],
  ["Oc1ccc(Cc2ccc(O)cc2)cc1", "F"],
  ["CCN(CC)C(=O)C(Cl)=C(C)OP(=O)(OC)OC", "F"],
  ["Cc1cc(C(C)(C)c2ccc(O)c(C)c2)ccc1O", "F"],
  ["Cc1ccccc1OP(=O)(Oc1ccccc1)Oc1ccccc1", "F"],
  ["O=[N+]([O-])c1cccc2ccccc12", "F"],
  ["CN(C)C(=S)S", "F"],
  ["Cc1ccc2nc3sc(=O)sc3nc2c1", "F"],
  ["Cc1ccc(OP(=O)(Oc2ccc(C)cc2C)Oc2ccc(C)cc2C)c(C)c1", "F"],
  ["CCOP(=S)(OCC)SCS(=O)(=O)C(C)(C)C", "F"],
  ["CCCCOC(=O)COC(=O)c1ccccc1C(=O)OCCCC", "F"],
  ["OCCCCO", "F"],
  ["CC(C)(C)c1ccccc1O", "F"],
  ["Cc1cc(C)cc(C)c1", "F"],
  ["CCCCN(CCCC)C(=S)[S-].CCCCN(CCCC)C(=S)[S-].[Ni+2]", "F"],
  ["O=C1C=CC(=O)c2ccccc21", "F"],
  ["Cc1c([N+](=O)[O-])c(C)c([N+](=O)[O-])c(C(C)(C)C)c1[N+](=O)[O-]", "F"],
  ["CCCCCCCCCCCCc1cccc(S(=O)(=O)O)c1", "T"],
  ["Nc1c(Oc2ccccc2)cc(O)c2c1C(=O)c1ccccc1C2=O", "F"],
  ["Cc1cc(Cl)ccc1OC(C)C(=O)O (stereo not given)", "F"],
  ["CCOC(=O)C(SP(=S)(OC)OC)c1ccccc1 (stereo not given)", "F"],
  ["Nc1ccc(N)cc1", "F"],
  ["Oc1cccc(-c2ccccc2)c1", "F"],
  ["CCOC(=O)CC(=O)CCl", "F"],
  ["C[C@]12CC[C@@H](O)C[C@@H]1CC[C@@H]1[C@@H]2CC[C@]2(C)C(=O)CC[C@@H]12", "F"],
  ["C#CCOC(=O)/C=C(C)/C=C/CC(C)CCCC(C)C (stereo not given)", "F"],
  ["O=c1oc2ccccc2c(O)c1C(CC(O)c1ccc(-c2ccc(Br)cc2)cc1)c1ccccc1 (stereo not given)", "T"],
  ["CCOP(=O)(OCC)OC(=CCl)c1ccc(Cl)cc1Cl", "T"],
  ["Clc1cccc(Cl)c1Cl", "F"],
  ["Oc1c(Cl)cc(Cl)cc1Cl", "F"],
  ["Oc1c(Br)cc(Br)cc1Br", "F"],
  ["CC1(C)[C@H](C(=O)O[C@H](C#N)c2cccc(Oc3ccccc3)c2)[C@@H]1/C=C(\\Cl)C(F)(F)F", "F"],
  ["Oc1cc(Cl)c(Cl)cc1Cl", "F"],
  ["Cc1ccccc1OP(=O)(Oc1ccccc1C)Oc1ccccc1C", "T"],
  ["CC(C)=CC1C(C(=O)OCc2cccc(Oc3ccccc3)c2)C1(C)C (stereo not given)", "F"],
  ["O=C(O)C1(c2ccc3c(c2)OC[C@H](Cc2ccc(-c4ccccc4)cc2)[C@H]3O)CCCC1", "T"],
  ["CC(C)(C)c1cc([N+](=O)[O-])cc(C(C)(C)C)c1O", "F"],
  ["C=CC(Cl)CCl (stereo not given)", "F"],
  ["OC(Cc1ccccc1Cl)(Cn1[nH]cnc1=S)C1(Cl)CC1 (stereo not given)", "F"],
  ["O=C(O)COc1cc(Cl)c(Cl)cc1Cl", "F"],
  ["Cc1cc(Cl)ccc1N", "F"],
  ["Cc1cccc(OP(=O)(Oc2cccc(C)c2)Oc2cccc(C)c2)c1", "F"],
  ["O=S(=O)(C(Cl)(Cl)Cl)C(Cl)(Cl)Cl", "T"],
  ["COCC(=O)N(c1c(C)cccc1C)[C@H](C)C(=O)OC", "F"]
]}

* * *

Tested on: turtle Thyroid Hormone Receptor, alpha (TRa), gene 101949057
Experiment: ATG_trTRa_XSP2: Attagene TRANS-FACTORIAL Multi-Species (XSP1) HepG2 Assay for turtle Thyroid Hormone Receptor, alpha (TRa) (AID 2283834);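 also: hits raise reporter mRNA over the DMSO baseline so AC50 marks activators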
Records with an inconclusive call do not appear. Calls of active or inactive are those of the source. The calls were made as follows: active = hit-call score of the fitted dose curve at least 0.9, where 1 is the maximum; inconclusive = response in the unintended direction; inactive = score below 0.9.

{"columns": ["compound", "subject.of.test", "outcome"],
 "data": [
  ["CCOP(=S)(OCC)O/N=C(\\C#N)c1ccccc1", "turtle Thyroid Hormone Receptor, alpha (TRa), gene 101949057", "inactive"],
  ["O=c1oc2ccccc2c(O)c1C(CC(O)c1ccc(-c2ccc(Br)cc2)cc1)c1ccccc1 (centres undefined)", "turtle Thyroid Hormone Receptor, alpha (TRa), gene 101949057", "inactive"],
  ["COCCl", "turtle Thyroid Hormone Receptor, alpha (TRa), gene 101949057", "inactive"],
  ["[Cl][Sn]([c]1ccccc1)([c]1ccccc1)[c]1ccccc1", "turtle Thyroid Hormone Receptor, alpha (TRa), gene 101949057", "inactive"]
]}

* * *

Read-out: flavin-containing dimethylaniline monooxygenases 3 (FMO3), FMO3 (gene 2328)
Experiment: LTEA_HepaRG_FMO3: Life Technologies and Expression Analysis (LTEA) Assay for flavin-containing dimethylaniline monooxygenases 3 (FMO3) using HepaRG (AID 2283453)
Conditions: mRNA level, 48 h; actives raise or lower the signal
Activity calls are given as the source filed them. Rule for the calls: active = hit-call score of the fitted dose curve at least 0.9, where 1 is the maximum; inactive = score below 0.9.
Outcomes: t = active, f = inactive

{"columns": ["smiles.text", "label.class"],
 "data": [
  ["N#Cc1cccnc1", "f"],
  ["O=C(O)C1(c2ccc3c(c2)OC[C@H](Cc2ccc(-c4ccccc4)cc2)[C@H]3O)CCCC1", "t"],
  ["Oc1c(Cl)cc(Cl)cc1Cl", "f"],
  ["Oc1cc(Cl)c(Cl)cc1Cl", "f"],
  ["Cc1cc(C)cc(C)c1", "f"],
  ["CC(C)(C)c1ccccc1O", "f"]
]}

* * *

Assay: Tanguay_ZF_120hpf_CIRC_legacy: (Legacy) Oregon State University Tanguay Lab 120 Hour Post-fertilization zebrafish Assay for Circulatory Malformation (AID 2283651)
Inconclusive results are not listed. Calls of active or inactive are those of the source. Rule for the calls: active = hit-call score of the fitted dose curve at least 0.9, where 1 is the maximum; inconclusive = response in the unintended direction; inactive = score below 0.9.

{"columns": ["smiles.text", "outcome"],
 "data": [
  ["Clc1cccc(Cl)c1Cl", "inactive"],
  ["Oc1cc(Cl)c(Cl)cc1Cl", "inactive"],
  ["Cc1cc(C)cc(C)c1", "inactive"],
  ["OCCN(CCO)CCO", "inactive"],
  ["CC(C)(C)c1ccccc1O", "inactive"],
  ["N#Cc1cccnc1", "inactive"],
  ["CC(C)O.CC(C)O.OCCN(CCO)CCO.OCCN(CCO)CCO.[Ti]", "inactive"]
]}

* * *

Read-out: Interferon-gamma inducible Protein 10 (IP10), CXCL10 (gene 3627)
Assay: BSK_KF3CT_IP10: BioMAP Diversity Plus: KF3CT Assay for Interferon-gamma inducible Protein 10 (IP10) Biomarker Activity (AID 2283068)
Conditions: primary human keratinocytes with fibroblasts; actives raise or lower the signal
Calls of active or inactive are those of the source. How the source made its calls: active means hit-call score of the fitted dose curve at least 0.9, where 1 is the maximum; inactive means score below 0.9.
Outcomes: active, inactive

{"columns": ["molecule", "label.class"],
 "data": [
  ["CC(C)(C)c1cc([N+](=O)[O-])cc(C(C)(C)C)c1O", "active"],
  ["O=C(CCl)NCO", "inactive"],
  ["Oc1cc(Cl)c(Cl)cc1Cl", "inactive"],
  ["C#CCOC(=O)/C=C(C)/C=C/CC(C)CCCC(C)C (stereo unspecified)", "inactive"],
  ["CCOP(=S)(OCC)OP(=S)(OCC)OCC", "inactive"],
  ["CC1(C)[C@H](C(=O)O[C@H](C#N)c2cccc(Oc3ccccc3)c2)[C@@H]1/C=C(\\Cl)C(F)(F)F", "inactive"]
]}
